src = patent US9725445B2

- targetUnderTest: JAK1 (Homo sapiens (Human))
- experimentSummary: Jak biochemical HTRF assay, JAK1
- measurementConditions: HTRF biochemical assay, recombinant GST-tagged catalytic domain; read-out: JAK1 IC50
Known IC50 of a selection of molecules

# molecule, unitString, IC50
measured = [
    ("CC1NCc2cc(Nc3nn([C@H]4CCCC[C@@H]4C#N)c4cc[nH]c(=O)c34)ccc21 (single isomer, unassigned) [Example 12-5]", "pM", 610),
    ("CN(C)[C@H]1CC[C@H](n2nc(Nc3ccc(OC(F)(F)F)cc3)c3c(=O)[nH]ccc32)[C@@H](C#N)C1 [Example 5-26]", "pM", 330),
    ("CC(C)(C)N1Cc2cc(Nc3nn([C@H]4CCCCC[C@@H]4C#N)c4cc[nH]c(=O)c34)ccc2S1(=O)=O (single isomer, unassigned) [Example 3-176]", "pM", 1900),
]

====

- targetUnderTest: JAK2 (Homo sapiens (Human))
- Sequence (O60674 849-1124): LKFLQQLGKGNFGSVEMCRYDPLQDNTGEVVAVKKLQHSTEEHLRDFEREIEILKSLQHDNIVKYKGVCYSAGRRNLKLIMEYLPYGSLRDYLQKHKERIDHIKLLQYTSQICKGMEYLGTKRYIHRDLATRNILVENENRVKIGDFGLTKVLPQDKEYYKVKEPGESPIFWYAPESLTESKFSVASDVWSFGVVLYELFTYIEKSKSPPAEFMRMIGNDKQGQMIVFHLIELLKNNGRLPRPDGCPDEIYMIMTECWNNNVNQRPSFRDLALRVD
- experimentSummary: Jak biochemical HTRF assay, JAK2
- measurementConditions: HTRF biochemical assay, recombinant GST-tagged catalytic domain; read-out: JAK2 IC50
pIC50: −log10 of the molar value.
quantityMeasured: pIC50

# compound, targetUnderTest, quantityMeasured, observedMeasurement
data = [
    ("CN(C)[C@@H]1CC[C@H](n2nc(Nc3ccc(Cl)cc3)c3c(=O)[nH]ccc32)[C@@H](C#N)C1", "JAK2 (Homo sapiens (Human))", "pIC50", 7.96),
    ("C[C@H](NC1CCC(n2nc(Nc3ccc(Cl)cc3)c3c(=O)[nH]ccc32)C(C#N)C1)C1CC1 (stereo in doubt) [Example 4-1]", "JAK2 (Homo sapiens (Human))", "pIC50", 6.91),
    ("N#C[C@H]1CCCC[C@@H]1n1nc(Nc2cccc(Cn3cccn3)c2)c2c(=O)[nH]ccc21", "JAK2 (Homo sapiens (Human))", "pIC50", 8.77),
    ("CC(C)(C)OC(=O)NCc1cc(Nc2nn([C@H]3CCCC[C@@H]3C#N)c3cc[nH]c(=O)c23)ccc1F", "JAK2 (Homo sapiens (Human))", "pIC50", 8.33),
]

====

Below, each of the compounds is paired with its reported IC50 value.
- targetUnderTest: UniProtKB O60674
- experimentSummary: Jak biochemical HTRF assay, JAK2
- measurementConditions: HTRF biochemical assay, recombinant GST-tagged catalytic domain; read-out: JAK2 IC50

# compound, unitString, IC50
data = [
    ("N#C[C@H]1CCCC[C@@H]1n1nc(Nc2ccc([C@@H](N)C(F)(F)F)cc2)c2c(=O)[nH]ccc21 [Example 7-3]", "nM", 0.37),
    ("Cc1cn(Cc2cccc(Nc3nn([C@H]4CCCC[C@@H]4C#N)c4cc[nH]c(=O)c34)c2)nn1 [Example 3-37]", "nM", 2.1),
    ("N#C[C@H]1CCCC[C@@H]1n1nc(Nc2ccc(C3(O)COC3)cc2)c2c(=O)[nH]ccc21 [Example 15-9]", "nM", 1.1),
    ("N#C[C@H]1CCCC[C@@H]1n1nc(Nc2ccc3c(c2)C(O)C2(CCCCC2)S3(=O)=O)c2c(=O)[nH]ccc21 (single isomer, unassigned) [Example 3-174]", "nM", 0.49),
    ("Cc1cc(Nc2nn([C@@H]3CCCCC[C@H]3C#N)c3cc[nH]c(=O)c23)ccc1C(O)C(F)(F)F (single isomer, unassigned) [Example 15-68]", "nM", 1.2),
    ("CC(O)(c1ccc(Nc2nn([C@H]3CCCC[C@@H]3C#N)c3cc[nH]c(=O)c23)cc1)C(F)(F)F (single isomer, unassigned) [Example 15-12]", "nM", 0.84),
    ("N#C[C@@H]1CCC[C@H]1n1nc(Nc2ccnc(F)c2)c2c(=O)[nH]ccc21 [Example 3-93]", "nM", 48),
]

====

Overview of recorded IC50 for various compounds
- targetUnderTest: JAK1 (Homo sapiens (Human), UniProt P23458)
- Sequence (P23458 875-1153): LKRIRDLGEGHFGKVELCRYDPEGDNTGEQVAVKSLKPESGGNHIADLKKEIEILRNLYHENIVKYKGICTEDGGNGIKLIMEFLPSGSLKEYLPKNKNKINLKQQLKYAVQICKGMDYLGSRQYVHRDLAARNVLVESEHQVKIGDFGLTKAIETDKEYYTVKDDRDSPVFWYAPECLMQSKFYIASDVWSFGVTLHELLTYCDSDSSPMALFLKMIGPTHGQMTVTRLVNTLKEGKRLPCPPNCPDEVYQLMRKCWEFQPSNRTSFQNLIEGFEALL
- experimentSummary: Jak biochemical HTRF assay, JAK1
- measurementConditions: HTRF biochemical assay, recombinant GST-tagged catalytic domain; read-out: JAK1 IC50

# compound, IC50 / nM
measured = [
    ("CC(C)(C)[S@+]([O-])N[C@H](c1cccc(Nc2nn([C@H]3CCCC[C@@H]3C#N)c3cc[nH]c(=O)c23)c1)C(F)(F)F", 0.46),
    ("CC(C)N1Cc2cc(Nc3nn([C@H]4CCCC[C@@H]4C#N)c4cc[nH]c(=O)c34)ccc2C1=O", 0.057),
    ("Cc1cc(Nc2nn([C@H]3CCCC[C@@H]3C#N)c3cc[nH]c(=O)c23)ccc1C(C(C)C)n1nccn1 (single isomer, unassigned) [Example 15-35]", 1.2),
    ("N#C[C@H]1CCCC[C@@H]1n1nc(Nc2ccc(S(N)(=O)=O)cc2)c2c(=O)[nH]ccc21", 0.11),
    ("CC(C)N1Cc2cc(Nc3nn([C@H]4CCCC[C@@H]4C#N)c4cc[nH]c(=O)c34)ccc2S1(=O)=O", 0.071),
    ("N#C[C@@H]1CCCC[C@H]1n1nc(Nc2cccc(CNC(=O)c3cnco3)c2)c2c(=O)[nH]ccc21", 14),
    ("N#C[C@H]1CCCC[C@@H]1n1nc(Nc2ccc3c(c2)CCS3(=O)=O)c2c(=O)[nH]ccc21", 0.062),
]

====

- targetUnderTest: UniProt:P23458
- experimentSummary: Jak biochemical HTRF assay, JAK1
- measurementConditions: HTRF biochemical assay, recombinant GST-tagged catalytic domain; read-out: JAK1 IC50
I'd appreciate it if you marked entries Met when IC50 is lower than 0.2 nM and Not met when it is not.

# molecule, targetUnderTest, answerLabel
measured = [
    ("N#C[C@@H]1C[C@@H](N2CCC2)CC[C@H]1n1nc(Nc2ccc(C(F)(F)F)cc2)c2c(=O)[nH]ccc21", "UniProt:P23458", "Not met"),
    ("Cc1cc(Nc2nn([C@H]3CCCC[C@@H]3C#N)c3cc[nH]c(=O)c23)ccc1C(C(C)C)n1nccn1 (single isomer, unassigned) [Example 15-36]", "UniProt:P23458", "Not met"),
    ("N#C[C@H]1CCCC[C@@H]1n1nc(Nc2ccc(C3(C(F)(F)F)CC3)cc2)c2c(=O)[nH]ccc21", "UniProt:P23458", "Not met"),
    ("CN(C)S(=O)(=O)c1ccc(Nc2nn([C@H]3CCCC[C@@H]3C#N)c3cc[nH]c(=O)c23)cc1CN", "UniProt:P23458", "Not met"),
    ("N#C[C@H]1CCCC[C@@H]1n1nc(Nc2ccc3c(c2)CN([C@H]2CC[C@@H](C(=O)O)CC2)S3(=O)=O)c2c(=O)[nH]ccc21", "UniProt:P23458", "Met"),
    ("CCN1Cc2cc(Nc3nn([C@H]4CCCC[C@@H]4C#N)c4cc[nH]c(=O)c34)ccc2S1(=O)=O", "UniProt:P23458", "Met"),
    ("N#C[C@H]1CCCC[C@@H]1n1nc(Nc2ccc3c(c2)CN(C2CCOCC2)S3(=O)=O)c2c(=O)[nH]ccc21", "UniProt:P23458", "Met"),
    ("N#C[C@H]1CCCC[C@@H]1n1nc(Nc2ccc(-c3nccs3)cc2)c2c(=O)[nH]ccc21", "UniProt:P23458", "Not met"),
    ("N#C[C@H]1CCCC[C@@H]1n1nc(Nc2ccc3c(c2)CC2(CCOCC2)S3(=O)=O)c2c(=O)[nH]ccc21", "UniProt:P23458", "Met"),
    ("CC1c2cc(Nc3nn([C@H]4CCCC[C@@H]4C#N)c4cc[nH]c(=O)c34)ccc2S(=O)(=O)N1CC(F)(F)F (single isomer, unassigned) [Example 3-128]", "UniProt:P23458", "Met"),
    ("CN(C)C(=O)c1ccc(Nc2nn([C@H]3CCCC[C@@H]3C#N)c3cc[nH]c(=O)c23)cc1C1CC1", "UniProt:P23458", "Not met"),
    ("N#C[C@H]1CCCC[C@@H]1n1nc(Nc2ccc3c(c2)CC2(CCCCC2)S3(=O)=O)c2c(=O)[nH]ccc21", "UniProt:P23458", "Met"),
    ("CC1(C)C(=O)Nc2cc(Nc3nn([C@H]4CCCC[C@@H]4C#N)c4cc[nH]c(=O)c34)ccc21", "UniProt:P23458", "Met"),
    ("Cc1cc(Nc2nn([C@H]3CCCCC[C@@H]3C#N)c3cc[nH]c(=O)c23)ccc1C(=O)N1CCCC1 (single isomer, unassigned)", "UniProt:P23458", "Not met"),
    ("N#C[C@@H]1CCCC[C@H]1n1nc(Nc2ccc(CS(=O)(=O)N3CCCC3)cc2)c2c(=O)[nH]ccc21", "UniProt:P23458", "Not met"),
    ("COCC(C)(C)N1Cc2cc(Nc3nn([C@H]4CCCC[C@@H]4C#N)c4cc[nH]c(=O)c34)ccc2S1(=O)=O", "UniProt:P23458", "Met"),
    ("COCC(C)(C)CN1Cc2cc(Nc3nn([C@H]4CCCC[C@@H]4C#N)c4cc[nH]c(=O)c34)ccc2S1(=O)=O", "UniProt:P23458", "Met"),
    ("CC(C)(O)c1cn(Cc2cccc(Nc3nn([C@H]4CCCC[C@@H]4C#N)c4cc[nH]c(=O)c34)c2)nn1", "UniProt:P23458", "Not met"),
    ("CC(C)(C)OC(=O)NCc1cc(F)cc(Nc2nn([C@H]3CCCC[C@@H]3C#N)c3cc[nH]c(=O)c23)c1", "UniProt:P23458", "Not met"),
    ("COCCN1Cc2cc(Nc3nn([C@H]4CCCC[C@@H]4C#N)c4cc[nH]c(=O)c34)ccc2S1(=O)=O", "UniProt:P23458", "Met"),
    ("N#C[C@@H]1CCC[C@H]1n1nc(Nc2ccnc(F)c2)c2c(=O)[nH]ccc21", "UniProt:P23458", "Not met"),
    ("N#C[C@H]1CCCC[C@@H]1n1nc(Nc2ccc(CN)cc2)c2c(=O)[nH]ccc21", "UniProt:P23458", "Not met"),
    ("CC1(C)OCC(C)(c2cccc(Nc3nn([C@H]4CCCC[C@@H]4C#N)c4cc[nH]c(=O)c34)c2)O1 (some centres unmarked)", "UniProt:P23458", "Not met"),
    ("N#C[C@H]1CCCC[C@@H]1n1nc(Nc2ccc(-c3noc(=O)[nH]3)cc2)c2c(=O)[nH]ccc21", "UniProt:P23458", "Met"),
    ("CC(C)(C)OC(=O)C1CCC(N2Cc3cc(Nc4nn([C@H]5CCCC[C@@H]5C#N)c5cc[nH]c(=O)c45)ccc3C2=O)CC1 (single isomer, unassigned) [Example 3-135]", "UniProt:P23458", "Not met"),
    ("CN(C)C(c1ccc(Nc2nn([C@H]3CCCC[C@@H]3C#N)c3cc[nH]c(=O)c23)cc1)C(F)(F)F (single isomer, unassigned) [Example 9-4]", "UniProt:P23458", "Met"),
]
